Where do these numbers come from? They come from patent US20200317817A1.

- Study System: T1, recombinant N-terminal extracellular domain of the human PTH1R receptor (human, UniProt Q03431 27-188, limits assumed)
- T1 construct: domain: N-terminal extracellular domain; Bought reagent; also called N-ECD PTH1R; PTH1R N-terminal ECD
- T1 sequence (looked up): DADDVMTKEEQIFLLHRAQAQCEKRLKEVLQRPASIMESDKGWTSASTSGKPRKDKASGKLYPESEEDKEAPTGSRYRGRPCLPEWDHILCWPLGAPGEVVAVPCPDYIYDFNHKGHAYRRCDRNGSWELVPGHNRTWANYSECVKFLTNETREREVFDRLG
- Protocol Details: SPR, IgG captured, ECD injected
# reported koff; entries follow
State the answer as a number, implicitly in s⁻¹.

See these solved cases before continuing.
binder="XPA.85.344 (antibody, V domains shown, Light-chain-shuffled variant of XPA.85.012) VH: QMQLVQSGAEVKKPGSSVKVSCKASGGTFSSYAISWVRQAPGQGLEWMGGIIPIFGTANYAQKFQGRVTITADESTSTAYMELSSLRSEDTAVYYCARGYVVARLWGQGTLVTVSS VL: DVVMTQTPLSLSVTPGQPASFSCKSTQSLLWRDGNTYLYWYLQKPGQSPQLLIYEVSGRFSGVPERFSGSGSGTDFTLEISRVEAEDVGVYYCMQSIHFPLTFGGGTKLEIK" reading=0.00023
binder="XPA.85.331 (antibody, V domains shown, Light-chain-shuffled variant of XPA.85.012) VH: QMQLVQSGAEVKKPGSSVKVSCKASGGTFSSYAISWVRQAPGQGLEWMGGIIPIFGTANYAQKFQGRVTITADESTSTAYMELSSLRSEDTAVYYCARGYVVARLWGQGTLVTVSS VL: DVVMTQSPLSLPVTPGEPASISCRSSQSLLHIDGFNYLQWYLQKPGQSPQLLVHLGSFRASGVPDRFSGSGSGTDFTLEISRVEAEDVGLYYCMQGLQTPPTFGPGTKVEIK" reading=0.00035
binder="XPA.85.335 (antibody, V domains shown, Light-chain-shuffled variant of XPA.85.017) VH: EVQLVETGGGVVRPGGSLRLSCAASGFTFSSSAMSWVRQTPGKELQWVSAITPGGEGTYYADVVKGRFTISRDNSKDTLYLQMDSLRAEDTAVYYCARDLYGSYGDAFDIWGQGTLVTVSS VL: QSVLTQPPSVSAAPGQRVTISCSGNTSNIGNNFVSWYQQLPGTAPKLLIYDDNKRPSGIPDRFSGSKSGTSATLGISGLQTGDEADYYCGTWDNSLNPPWVFGGGTQLTVL" reading=0.0019

We now examine a further binder.
Input: Return reported koff. Input binder: XPA.85.346 (antibody, V domains shown, Light-chain-shuffled variant of XPA.85.012) VH: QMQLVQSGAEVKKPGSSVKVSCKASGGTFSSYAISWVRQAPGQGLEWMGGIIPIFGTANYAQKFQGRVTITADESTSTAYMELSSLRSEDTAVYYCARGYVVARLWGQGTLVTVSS VL: DIVMTQTPLSLSVTPGQPASITCKSSQSLLHIDGKTYLYWFLQKPGQPPQLLIYEVSNRFSGVPDRFSGSGSGTDFTLKISRVEAEDVGLYYCMQSLHLPITFGQGTRLEIK
Output: 0.00014
